biological target: Polyunsaturated fatty acid 5-lipoxygenase (Homo sapiens, UniProt P09917); assay: Inhibition of recombinant human 5-LO expressed in Escherichia coli BL21 using arachidonic acid as substrate preincubated for 15 mins followed by substrate addition measured after 10 mins by RP-HPLC analysis
Property label: IC50 (nM)

1) CCOC(=O)c1c(-c2cccc(C)c2)[nH]c2c1cc(O)c1ccccc12	140

A. CCOC(=O)c1c(-c2ccc(Cl)c(Cl)c2)[nH]c2c1cc(O)c1ccccc12
B. CCOC(=O)c1c(Cc2c(Cl)cccc2Cl)[nH]c2c1cc(O)c1ccccc12
Query: Among A and B , which shows a numerically higher IC50 result? # respond with the chosen item's label
Reply: B
(B: 782 nM, A: 130 nM)

* * *

target: Polyunsaturated fatty acid 5-lipoxygenase (Homo sapiens); test: Inhibition of 5-LO in human peripheral blood neutrophils using arachidonic acid as substrate preincubated for 15 mins followed by substrate addition measured after 10 mins by RP-HPLC analysis
Property label: IC50 (nM)

Use these answered entries as a reference point.
1. CCOC(=O)c1c(-c2cccc(Cl)c2)oc2c1cc(O)c1ccccc12	3920
2. CCOC(=O)c1c(-c2cccc(C)c2)[nH]c2c1cc(O)c1ccccc12	120
3. CCOC(=O)c1c(-c2ccc(Cl)c(Cl)c2)oc2c1cc(O)c1ccccc12	1240
4. CCOC(=O)c1c(-c2ccc(Br)cc2F)[nH]c2c1cc(O)c1ccccc12	860
5. CCOC(=O)c1c(-c2ccccc2OC)oc2c1cc(O)c1ccccc12	1360
6. CCOC(=O)c1c(Cc2c(C)cc(C)cc2C)[nH]c2c1cc(O)c1ccccc12	130

1. CCOC(=O)c1c(-c2ccc(Br)cc2F)oc2c1cc(O)c1ccccc12
2. CCOC(=O)c1c(-c2ccccc2F)[nH]c2c1cc(O)c1ccccc12
Query: From the items above, decide which of 1 and 2 has the lower IC50 reading. # respond with the chosen item's label
Reply: 2
(2: 150 nM, 1: 2320 nM)

a. CCOC(=O)c1c(-c2ccccc2Cl)oc2c1cc(O)c1ccccc12
b. CCOC(=O)c1c(Cc2ccc(Cl)c(Cl)c2)[nH]c2c1cc(O)c1ccccc12
c. CCOC(=O)c1c(-c2ccccc2OC)[nH]c2c1cc(O)c1ccccc12
d. CCOC(=O)c1c(-c2ccccc2C)[nH]c2c1cc(O)c1ccccc12
Query: Order the records, beginning with the lowest IC50 and ending with the highest. # answer = labels listed in requested order
Reply: b, c, d, a
(b: 45 nM, c: 210 nM, d: 420 nM, a: 1860 nM)

a. CCOC(=O)c1c(-c2cc(Br)ccc2F)[nH]c2c1cc(O)c1ccccc12
b. CCOC(=O)c1c(-c2ccc(Cl)cc2)oc2c1cc(O)c1ccccc12
c. CCOC(=O)c1c(-c2cccc(Br)c2)oc2c1cc(O)c1ccccc12
Query: Returns the items ordered by IC50, from maximum to minimum. # answer = labels listed in requested order
Reply: b, c, a
(b: 3740 nM, c: 1640 nM, a: 230 nM)

* * *

target: Prostaglandin E synthase (Homo sapiens); test: Inhibition of mPGES-1 in microsomal membranes isolated from IL-1beta-stimulated human A549 cells preincubated for 15 mins followed by PGH2 addition measured after 1 mins by RP-HPLC analysis
Sequence (O14684 whole entry): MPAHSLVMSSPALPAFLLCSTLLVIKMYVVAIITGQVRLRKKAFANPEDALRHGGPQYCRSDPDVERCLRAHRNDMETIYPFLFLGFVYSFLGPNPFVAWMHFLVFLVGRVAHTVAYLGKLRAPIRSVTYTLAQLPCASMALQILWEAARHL
pIC50: −log10 of the molar value.
Property label: pIC50

Use these answered entries as a reference point.
1. CCOC(=O)c1c(-c2cc(Br)ccc2F)[nH]c2c1cc(O)c1ccccc12	5.67
2. CCOC(=O)c1c(Cc2ccc(Cl)c(Cl)c2)[nH]c2c1cc(O)c1ccccc12	5.38
3. CCOC(=O)c1c(Cc2c(F)cccc2F)[nH]c2c1cc(O)c1ccccc12	5.38
4. CCOC(=O)c1c(-c2ccc(Cl)cc2)[nH]c2c1cc(O)c1ccccc12	5.47
5. CCOC(=O)c1c(-c2cccc(C)c2)[nH]c2c1cc(O)c1ccccc12	5.59

1. CCOC(=O)c1c(-c2ccccc2C)[nH]c2c1cc(O)c1ccccc12
2. CCOC(=O)c1c(-c2ccc(Cl)c(Cl)c2)[nH]c2c1cc(O)c1ccccc12
3. CCOC(=O)c1c(Cc2ccccc2Cl)[nH]c2c1cc(O)c1ccccc12
4. CCOC(=O)c1c(Cc2c(C)cc(C)cc2C)[nH]c2c1cc(O)c1ccccc12
5. CCOC(=O)c1c(-c2ccc(Br)cc2F)[nH]c2c1cc(O)c1ccccc12
Query: Order the records, beginning with the lowest pIC50 and ending with the highest. # answer = labels listed in requested order
Reply: 4, 1, 5, 3, 2

* * *

target: Polyunsaturated fatty acid 5-lipoxygenase (Homo sapiens); assay: Inhibition of recombinant human 5-LO expressed in Escherichia coli BL21 using arachidonic acid as substrate preincubated for 15 mins followed by substrate addition measured after 10 mins by RP-HPLC analysis
pIC50: −log10 of the molar value.
Property label: pIC50

A. CCOC(=O)c1c(-c2cccc(Br)c2)oc2c1cc(O)c1ccccc12
B. CCOC(=O)c1c(-c2cccc(Cl)c2)oc2c1cc(O)c1ccccc12
Query: Among A and B , which shows a numerically higher pIC50 result? # respond with the chosen item's label
Reply: B

* * *

Molecular target: Polyunsaturated fatty acid 5-lipoxygenase (Homo sapiens)
Sequence (P09917 whole entry): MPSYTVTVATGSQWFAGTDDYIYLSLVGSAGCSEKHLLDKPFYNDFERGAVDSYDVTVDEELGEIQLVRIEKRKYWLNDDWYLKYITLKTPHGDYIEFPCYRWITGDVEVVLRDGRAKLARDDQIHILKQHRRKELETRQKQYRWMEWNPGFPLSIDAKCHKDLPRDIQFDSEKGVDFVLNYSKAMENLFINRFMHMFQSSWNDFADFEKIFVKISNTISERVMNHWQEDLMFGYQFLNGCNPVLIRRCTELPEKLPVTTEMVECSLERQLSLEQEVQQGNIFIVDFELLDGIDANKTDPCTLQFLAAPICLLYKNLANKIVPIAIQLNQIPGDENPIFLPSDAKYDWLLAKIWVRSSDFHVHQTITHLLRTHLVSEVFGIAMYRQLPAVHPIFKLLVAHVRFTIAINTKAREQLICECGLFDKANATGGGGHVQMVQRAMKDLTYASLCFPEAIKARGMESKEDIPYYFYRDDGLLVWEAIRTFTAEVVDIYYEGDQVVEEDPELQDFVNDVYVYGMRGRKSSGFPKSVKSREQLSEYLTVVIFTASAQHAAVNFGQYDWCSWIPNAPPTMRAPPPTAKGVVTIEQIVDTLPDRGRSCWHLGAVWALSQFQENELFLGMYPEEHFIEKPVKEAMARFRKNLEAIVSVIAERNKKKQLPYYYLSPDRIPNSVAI
Test: Inhibition of recombinant human 5-LO expressed in Escherichia coli BL21 using arachidonic acid as substrate preincubated for 15 mins followed by substrate addition measured after 10 mins by RP-HPLC analysis
pIC50: −log10 of the molar value.
Property label: pIC50

Use these answered entries as a reference point.
1) CCOC(=O)c1c(-c2ccccc2OC)oc2c1cc(O)c1ccccc12	6.66
2) CCOC(=O)c1c(C)[nH]c2c1cc(O)c1ccccc12	6.32
3) CCOC(=O)c1c(-c2cc(Br)ccc2F)oc2c1cc(O)c1ccccc12	5.69
4) CCOC(=O)c1c(Cc2c(C)cc(C)cc2C)[nH]c2c1cc(O)c1ccccc12	6.53

1. CCOC(=O)c1c(-c2ccccc2C)[nH]c2c1cc(O)c1ccccc12
2. CCOC(=O)c1c(-c2ccc(Br)cc2F)oc2c1cc(O)c1ccccc12
3. CCOC(=O)c1c(Cc2ccc(Cl)c(Cl)c2)[nH]c2c1cc(O)c1ccccc12
4. CCOC(=O)c1c(-c2ccccc2OC)[nH]c2c1cc(O)c1ccccc12
Query: Order the records, beginning with the lowest pIC50 and ending with the highest. # answer = labels listed in requested order
Reply: 2, 4, 1, 3

* * *

target: Polyunsaturated fatty acid 5-lipoxygenase (Homo sapiens); experiment: Inhibition of 5-LO in human peripheral blood neutrophils using arachidonic acid as substrate preincubated for 15 mins followed by substrate addition measured after 10 mins by RP-HPLC analysis
pIC50: −log10 of the molar value.
Property label: pIC50

1. CCOC(=O)c1c(Cc2c(F)cccc2F)[nH]c2c1cc(O)c1ccccc12	7.03
2. CCOC(=O)c1c(C)[nH]c2c1cc(O)c1ccccc12	6.38
3. CCOC(=O)c1c(-c2ccccc2F)oc2c1cc(O)c1ccccc12	6.17
4. CCOC(=O)c1c(-c2ccccc2Br)oc2c1cc(O)c1ccccc12	6.10
5. CCOC(=O)c1c(-c2cc(C)cc(C)c2)[nH]c2c1cc(O)c1ccccc12	6.52

1. CCOC(=O)c1c(-c2ccccc2Cl)[nH]c2c1cc(O)c1ccccc12
2. CCOC(=O)c1c(-c2ccc(Cl)c(Cl)c2)[nH]c2c1cc(O)c1ccccc12
3. CCOC(=O)c1c(-c2cc(Br)ccc2F)oc2c1cc(O)c1ccccc12
4. CCOC(=O)c1c(Cc2c(Cl)cccc2Cl)[nH]c2c1cc(O)c1ccccc12
Query: Order the records, beginning with the lowest pIC50 and ending with the highest. # answer = labels listed in requested order
Reply: 3, 4, 1, 2

The measured values listed here are drawn from ChEMBL document CHEMBL4270559.
